Could you please report measured solubility kinetic at 24 h for the items listed next?
Assay: Kinetic solubility of the compound in phosphate-buffered solution at pH 7.4 incubated for 24 hrs by HPLC-MS/MS analysis
Format: physicochemical
Conditions: phosphate buffer, read-out: Kinetic_solubility
Answer format: numeric, µg/mL implied, no suffix.

Recorded result, Cc1cc2ncnn2cc1Nc1ncc2c(n1)n(C1CCOCC1)c(=O)n2C , solubility kinetic at 24 h: 120

Recorded result, Cc1cc2ncnn2cc1Nc1ncc2c(n1)N(C1CCOCC1)CC(=O)N2C , solubility kinetic at 24 h: 80

====

Could you please report measured Tmax for the items listed next?
Experiment: Tmax in Sprague-Dawley rat at 5 mg/kg, po
Format: ADME, organism-based
Conditions: in vivo
Answer format: numeric, min implied, no suffix.

Recorded result, Cc1cc2ncnn2cc1Nc1ncc2c(n1)N(C1CCOCC1)CC(=O)N2C , Tmax: 25.2

Recorded result, Cc1cc2ncnn2cc1Nc1ncc2c(n1)n(C1CCOCC1)c(=O)n2C , Tmax: 49.8

====

Assay: Cmax in Sprague-Dawley rat at 5 mg/kg, po
Assay type: ADME, organism-based
Parameters: dose 5 mg/kg, route po
Conditions: in vivo
assay metric: Cmax (ng/mL)
Answer format: numeric, ng/mL implied, no suffix.

Recorded result, Cc1cc2ncnn2cc1Nc1ncc2c(n1)n(C1CCOCC1)c(=O)n2C , Cmax: 1500

Recorded result, Cc1cc2ncnn2cc1Nc1ncc2c(n1)N(C1CCOCC1)CC(=O)N2C , Cmax: 810

====

Biological target: Phosphatidylinositol 4,5-bisphosphate 3-kinase catalytic subunit delta isoform (Homo sapiens, UniProt O00329)
Assay: Inhibition of human PI3Kdelta by ADP-Glo assay
assay metric: IC50 (nM)
Answer format: numeric, nM implied, no suffix.

Recorded result, Cc1cc2ncnn2cc1Nc1ncc2c(n1)N(C1CCOCC1)CC(=O)N2C , IC50: 758

====

Target: Phosphatidylinositol 4,5-bisphosphate 3-kinase catalytic subunit alpha isoform (Homo sapiens, UniProt P42336)
Test: Inhibition of human PI3Kalpha by Kinase-Glo assay
assay metric: pIC50
Scale: negative log10 of molar concentration, which is what pIC50 denotes.

Recorded result, Cc1cc2ncnn2cc1Nc1ncc2c(n1)N(C1CCOCC1)CC(=O)N2C , pIC50: 6.73

====

Target: DNA-dependent protein kinase catalytic subunit (Homo sapiens)
Experiment: Inhibition of human native full length DNA-PK by ADP-Glo assay
assay metric: pIC50
Scale: negative log10 of molar concentration, which is what pIC50 denotes.

# Cc1cc2ncnn2cc1Nc1ncc2c(n1)N(C1CCOCC1)CC(=O)N2C1CC1 with DNA-dependent protein kinase catalytic subunit (Homo sapiens): pIC50 is 8.17

# Cc1cc2ncnn2cc1Nc1ncc2c(n1)N(C1CCOCC1)CC(=O)N2 with DNA-dependent protein kinase catalytic subunit (Homo sapiens): pIC50 is 8.15

# Cc1cc2ncnn2cc1Nc1ncc2c(n1)N(C1CCOCC1)CC(=O)N2C(C)C with DNA-dependent protein kinase catalytic subunit (Homo sapiens): pIC50 is 7.59

# CCN1C(=O)CN(C2CCOCC2)c2nc(Nc3cn4ncnc4cc3C)ncc21 with DNA-dependent protein kinase catalytic subunit (Homo sapiens): pIC50 is 8.47

# Cc1cc2ncnn2cc1Nc1ncc2c(n1)C1(CCC1)C(=O)N2C with DNA-dependent protein kinase catalytic subunit (Homo sapiens): pIC50 is 7.67

# Cc1cc2ncnn2cc1Nc1ncc2c(n1)C1(CCOCC1)C(=O)N2C(C)C with DNA-dependent protein kinase catalytic subunit (Homo sapiens): pIC50 is 6.66

# CCN1C(=O)C2(CCOCC2)c2nc(Nc3cn4ncnc4cc3C)ncc21 with DNA-dependent protein kinase catalytic subunit (Homo sapiens): pIC50 is 6.87

# Cc1cc2ncnn2cc1Nc1ncc2c(n1)C1(CCC(OCC(F)F)CC1)C(=O)N2C (stereo not given) with DNA-dependent protein kinase catalytic subunit (Homo sapiens): pIC50 is 7.77

# Cc1cc2ncccc2cc1Nc1ncc2c(n1)N(C1CCOCC1)CC(=O)N2C with DNA-dependent protein kinase catalytic subunit (Homo sapiens): pIC50 is 8.16

# Cc1cc2nccnc2cc1Nc1ncc2c(n1)N(C1CCOCC1)CC(=O)N2C with DNA-dependent protein kinase catalytic subunit (Homo sapiens): pIC50 is 8.49

====

Test: Intrinsic clearance in human liver microsomes
Format: ADME, Microsome
Settings: read-out: CLH
assay metric: microsomal CLint

Recorded result, Cc1cc2ncnn2cc1Nc1ncc2c(n1)N(C1CCOCC1)CC(=O)N2C , microsomal CLint: < 9.6 µL/min/mg

====

Could you please report measured fraction unbound for the items listed next?
Assay: Plasma protein binding in rat assessed as free fraction
Type: ADME, cell-free
No unit in the answer, please; the number alone is enough.

Recorded result, Cc1cc2ncnn2cc1Nc1ncc2c(n1)n(C1CCOCC1)c(=O)n2C , fraction unbound: 0.653

Recorded result, Cc1cc2ncnn2cc1Nc1ncc2c(n1)N(C1CCOCC1)CC(=O)N2C , fraction unbound: 0.667

====

Molecular target: DNA-dependent protein kinase catalytic subunit (Homo sapiens, UniProt P78527)
Sequence (P78527 whole entry): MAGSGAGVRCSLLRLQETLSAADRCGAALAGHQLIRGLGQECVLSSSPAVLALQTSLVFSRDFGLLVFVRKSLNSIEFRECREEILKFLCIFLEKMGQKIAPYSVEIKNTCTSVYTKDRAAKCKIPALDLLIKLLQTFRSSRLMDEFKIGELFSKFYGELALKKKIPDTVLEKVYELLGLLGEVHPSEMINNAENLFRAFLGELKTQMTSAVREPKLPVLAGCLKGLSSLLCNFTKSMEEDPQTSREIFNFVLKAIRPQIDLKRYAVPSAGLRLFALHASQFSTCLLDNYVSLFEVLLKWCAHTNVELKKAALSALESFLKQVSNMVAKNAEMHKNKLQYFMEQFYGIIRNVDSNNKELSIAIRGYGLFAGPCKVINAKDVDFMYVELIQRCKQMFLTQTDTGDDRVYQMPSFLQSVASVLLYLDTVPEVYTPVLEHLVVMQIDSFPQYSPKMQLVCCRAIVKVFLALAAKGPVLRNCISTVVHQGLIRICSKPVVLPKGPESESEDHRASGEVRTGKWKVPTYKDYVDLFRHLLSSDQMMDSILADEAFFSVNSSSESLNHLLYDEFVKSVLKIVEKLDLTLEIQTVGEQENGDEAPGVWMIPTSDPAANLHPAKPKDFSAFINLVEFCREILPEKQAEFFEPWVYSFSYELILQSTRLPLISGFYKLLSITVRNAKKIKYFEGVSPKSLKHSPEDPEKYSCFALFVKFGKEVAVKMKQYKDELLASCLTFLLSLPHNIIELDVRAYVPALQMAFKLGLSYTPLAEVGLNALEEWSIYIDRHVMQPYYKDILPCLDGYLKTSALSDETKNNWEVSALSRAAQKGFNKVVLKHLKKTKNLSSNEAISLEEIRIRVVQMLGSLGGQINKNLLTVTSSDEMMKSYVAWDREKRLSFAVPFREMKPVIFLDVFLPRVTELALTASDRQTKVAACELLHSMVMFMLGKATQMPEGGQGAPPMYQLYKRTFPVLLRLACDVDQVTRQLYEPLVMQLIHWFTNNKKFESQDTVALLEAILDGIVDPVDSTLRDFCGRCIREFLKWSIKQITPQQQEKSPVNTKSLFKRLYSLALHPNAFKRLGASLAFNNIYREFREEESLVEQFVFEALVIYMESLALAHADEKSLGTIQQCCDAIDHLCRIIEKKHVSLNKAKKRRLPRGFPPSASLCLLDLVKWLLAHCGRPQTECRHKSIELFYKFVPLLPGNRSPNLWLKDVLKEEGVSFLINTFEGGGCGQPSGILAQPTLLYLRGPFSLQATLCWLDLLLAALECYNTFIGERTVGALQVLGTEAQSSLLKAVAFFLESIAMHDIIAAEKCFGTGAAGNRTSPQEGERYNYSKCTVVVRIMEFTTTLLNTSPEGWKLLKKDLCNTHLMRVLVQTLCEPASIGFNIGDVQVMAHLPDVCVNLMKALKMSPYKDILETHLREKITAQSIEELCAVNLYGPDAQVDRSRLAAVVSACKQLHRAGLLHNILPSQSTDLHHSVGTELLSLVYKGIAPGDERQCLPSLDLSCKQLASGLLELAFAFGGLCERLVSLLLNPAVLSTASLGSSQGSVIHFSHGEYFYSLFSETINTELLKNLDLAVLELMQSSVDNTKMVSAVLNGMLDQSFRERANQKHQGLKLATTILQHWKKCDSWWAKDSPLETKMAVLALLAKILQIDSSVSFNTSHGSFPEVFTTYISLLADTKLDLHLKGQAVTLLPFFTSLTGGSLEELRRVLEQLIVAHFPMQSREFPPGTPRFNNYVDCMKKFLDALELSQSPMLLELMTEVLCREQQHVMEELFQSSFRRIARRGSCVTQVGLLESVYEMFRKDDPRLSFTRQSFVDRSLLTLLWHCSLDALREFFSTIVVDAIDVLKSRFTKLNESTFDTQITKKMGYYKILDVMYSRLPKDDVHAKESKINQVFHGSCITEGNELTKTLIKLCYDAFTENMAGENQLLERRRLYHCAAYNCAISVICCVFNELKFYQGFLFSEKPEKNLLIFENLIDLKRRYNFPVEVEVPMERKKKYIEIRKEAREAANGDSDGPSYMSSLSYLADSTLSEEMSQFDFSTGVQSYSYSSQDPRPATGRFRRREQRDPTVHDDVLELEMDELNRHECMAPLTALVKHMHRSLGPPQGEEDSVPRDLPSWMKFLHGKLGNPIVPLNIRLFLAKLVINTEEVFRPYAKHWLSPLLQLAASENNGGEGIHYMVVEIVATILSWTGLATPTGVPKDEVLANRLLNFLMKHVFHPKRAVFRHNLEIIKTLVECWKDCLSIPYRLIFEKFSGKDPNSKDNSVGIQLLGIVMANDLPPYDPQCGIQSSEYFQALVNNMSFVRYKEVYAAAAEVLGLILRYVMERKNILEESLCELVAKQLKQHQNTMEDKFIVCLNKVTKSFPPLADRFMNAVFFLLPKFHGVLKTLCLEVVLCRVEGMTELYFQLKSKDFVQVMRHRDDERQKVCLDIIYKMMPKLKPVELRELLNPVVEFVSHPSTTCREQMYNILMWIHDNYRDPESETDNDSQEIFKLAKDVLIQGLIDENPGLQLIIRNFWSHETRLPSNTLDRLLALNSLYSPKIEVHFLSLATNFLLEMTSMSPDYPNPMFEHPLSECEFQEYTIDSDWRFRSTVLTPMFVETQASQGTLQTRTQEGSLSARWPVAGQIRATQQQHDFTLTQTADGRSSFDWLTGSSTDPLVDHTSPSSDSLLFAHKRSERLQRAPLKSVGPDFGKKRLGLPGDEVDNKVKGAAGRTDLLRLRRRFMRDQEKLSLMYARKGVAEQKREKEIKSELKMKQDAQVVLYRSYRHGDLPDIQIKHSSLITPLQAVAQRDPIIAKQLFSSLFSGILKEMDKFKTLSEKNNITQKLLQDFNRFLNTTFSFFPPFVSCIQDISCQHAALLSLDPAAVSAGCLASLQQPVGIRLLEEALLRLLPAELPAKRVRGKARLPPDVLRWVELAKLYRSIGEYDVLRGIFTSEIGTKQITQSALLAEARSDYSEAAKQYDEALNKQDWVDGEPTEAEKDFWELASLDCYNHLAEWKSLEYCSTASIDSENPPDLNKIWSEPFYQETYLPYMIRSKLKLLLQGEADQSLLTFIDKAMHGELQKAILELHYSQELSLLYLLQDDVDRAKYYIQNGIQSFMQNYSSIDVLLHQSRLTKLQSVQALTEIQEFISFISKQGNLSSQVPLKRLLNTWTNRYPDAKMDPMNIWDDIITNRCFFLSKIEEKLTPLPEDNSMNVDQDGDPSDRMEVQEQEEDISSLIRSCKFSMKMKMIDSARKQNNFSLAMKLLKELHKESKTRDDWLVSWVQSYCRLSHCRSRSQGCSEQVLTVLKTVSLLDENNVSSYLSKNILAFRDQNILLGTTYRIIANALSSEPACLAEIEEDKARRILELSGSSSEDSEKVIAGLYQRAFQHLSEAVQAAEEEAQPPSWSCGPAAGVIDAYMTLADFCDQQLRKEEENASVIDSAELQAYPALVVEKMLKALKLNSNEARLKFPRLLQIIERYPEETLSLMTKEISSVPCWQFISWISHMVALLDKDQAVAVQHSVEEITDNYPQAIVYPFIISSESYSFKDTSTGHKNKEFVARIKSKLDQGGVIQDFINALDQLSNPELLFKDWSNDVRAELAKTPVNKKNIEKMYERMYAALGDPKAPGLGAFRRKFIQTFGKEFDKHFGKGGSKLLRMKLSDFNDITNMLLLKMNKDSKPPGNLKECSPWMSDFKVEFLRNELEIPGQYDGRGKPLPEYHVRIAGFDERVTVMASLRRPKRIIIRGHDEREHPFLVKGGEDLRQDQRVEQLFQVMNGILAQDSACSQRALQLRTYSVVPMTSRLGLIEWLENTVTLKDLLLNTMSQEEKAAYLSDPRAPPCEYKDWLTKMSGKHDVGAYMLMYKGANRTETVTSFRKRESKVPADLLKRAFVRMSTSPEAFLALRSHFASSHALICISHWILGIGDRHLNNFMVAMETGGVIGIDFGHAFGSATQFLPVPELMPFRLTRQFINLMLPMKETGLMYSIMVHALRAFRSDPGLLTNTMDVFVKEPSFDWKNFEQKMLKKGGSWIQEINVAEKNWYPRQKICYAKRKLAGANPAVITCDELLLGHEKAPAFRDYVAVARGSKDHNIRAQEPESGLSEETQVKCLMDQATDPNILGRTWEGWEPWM
Assay: Inhibition of human native full length DNA-PK by ADP-Glo assay
assay metric: IC50 (nM)
Answer format: numeric, nM implied, no suffix.

# [2H]C([2H])([2H])N1C(=O)C2(CCOCC2)c2nc(Nc3cn4ncnc4cc3C)ncc21 with DNA-dependent protein kinase catalytic subunit (Homo sapiens, UniProt P78527): IC50 is 126

# Cc1cc2ncnn2cc1Nc1ncc2c(n1)C(C)(C)C(=O)N2C with DNA-dependent protein kinase catalytic subunit (Homo sapiens, UniProt P78527): IC50 is 47.9

# Cc1cc2ncnn2cc1Nc1ncc2c(n1)N(C1CCOCC1)CC(=O)N2C with DNA-dependent protein kinase catalytic subunit (Homo sapiens, UniProt P78527): IC50 is 0.8

# Cc1cc2ncccc2cc1Nc1ncc2c(n1)C1(CCOCC1)C(=O)N2C with DNA-dependent protein kinase catalytic subunit (Homo sapiens, UniProt P78527): IC50 is 10.5

====

Assay: MRT (0 to infinity) in Sprague-Dawley rat at 5 mg/kg, po
Assay type: ADME, organism-based
Settings: in vivo
assay metric: MRT inf (h)
Answer format: numeric, h implied, no suffix.

Recorded result, Cc1cc2ncnn2cc1Nc1ncc2c(n1)n(C1CCOCC1)c(=O)n2C , MRT inf: 2.51

Recorded result, Cc1cc2ncnn2cc1Nc1ncc2c(n1)N(C1CCOCC1)CC(=O)N2C , MRT inf: 2.29

====

Assay: Half life in rat liver microsomes
Assay type: ADME, Microsome
assay metric: half-life

Recorded result, Cc1cc2ncnn2cc1Nc1ncc2c(n1)N(C1CCOCC1)CC(=O)N2C , half-life: > 2.42 h

====

Experiment: Kinetic solubility of the compound in phosphate-buffered solution at pH 6.4 incubated for 24 hrs by HPLC-MS/MS analysis
Assay type: physicochemical
Settings: phosphate buffer, read-out: Kinetic_solubility
assay metric: solubility kinetic at 24 h (µg/mL)
Answer format: numeric, µg/mL implied, no suffix.

Recorded result, Cc1cc2ncnn2cc1Nc1ncc2c(n1)n(C1CCOCC1)c(=O)n2C [AZD-7648] , solubility kinetic at 24 h: 101

Recorded result, Cc1cc2ncnn2cc1Nc1ncc2c(n1)N(C1CCOCC1)CC(=O)N2C , solubility kinetic at 24 h: 72.2

====

Molecular target: Phosphatidylinositol 4,5-bisphosphate 3-kinase catalytic subunit beta isoform (Homo sapiens, UniProt P42338)
Sequence (P42338 whole entry, canonical isoform): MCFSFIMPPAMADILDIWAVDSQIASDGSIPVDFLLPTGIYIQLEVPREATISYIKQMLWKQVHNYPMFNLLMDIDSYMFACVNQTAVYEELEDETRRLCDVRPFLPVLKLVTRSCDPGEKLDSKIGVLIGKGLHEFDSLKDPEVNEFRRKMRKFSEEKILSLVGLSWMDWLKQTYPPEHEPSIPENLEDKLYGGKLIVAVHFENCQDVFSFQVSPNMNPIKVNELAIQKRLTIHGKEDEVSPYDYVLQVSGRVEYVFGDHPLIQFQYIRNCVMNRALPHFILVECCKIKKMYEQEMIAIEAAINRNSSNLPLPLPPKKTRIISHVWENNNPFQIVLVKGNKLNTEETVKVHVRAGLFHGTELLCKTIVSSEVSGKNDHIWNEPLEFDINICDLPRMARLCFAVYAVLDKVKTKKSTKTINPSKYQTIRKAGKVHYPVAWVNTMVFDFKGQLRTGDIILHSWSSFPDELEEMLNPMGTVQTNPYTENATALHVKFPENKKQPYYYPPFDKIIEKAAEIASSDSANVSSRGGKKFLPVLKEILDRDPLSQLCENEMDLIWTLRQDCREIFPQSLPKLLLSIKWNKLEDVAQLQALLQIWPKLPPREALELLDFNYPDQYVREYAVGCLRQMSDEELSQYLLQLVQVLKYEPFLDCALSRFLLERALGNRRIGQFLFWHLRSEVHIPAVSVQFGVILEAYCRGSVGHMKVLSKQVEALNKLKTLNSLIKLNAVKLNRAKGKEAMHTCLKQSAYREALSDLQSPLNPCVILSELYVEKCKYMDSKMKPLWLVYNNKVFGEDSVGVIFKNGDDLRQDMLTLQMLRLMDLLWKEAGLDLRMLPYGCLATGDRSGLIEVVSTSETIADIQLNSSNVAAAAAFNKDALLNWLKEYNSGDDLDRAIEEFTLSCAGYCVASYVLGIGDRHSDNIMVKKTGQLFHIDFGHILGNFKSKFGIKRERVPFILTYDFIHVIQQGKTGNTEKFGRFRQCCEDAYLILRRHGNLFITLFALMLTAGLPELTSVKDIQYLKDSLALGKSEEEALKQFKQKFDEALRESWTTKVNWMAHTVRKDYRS
Assay: Inhibition of human PI3Kbeta by ADP-Glo assay
assay metric: IC50
Answer format: value, then unit.

Recorded result, Cc1cc2ncnn2cc1Nc1ncc2c(n1)N(C1CCOCC1)CC(=O)N2C , IC50: 0.83 µM
